- Tested on: RPMI-8226 leukemia
- assayRemarks: NCI-60 one-dose screen, 48 h
- experimentalParameters: 10 µM
The panel holds about 83,000 compounds, 20% with a hit somewhere; the sample as a whole holds those more often. Active and inactive are the calls of the source. The calls were made as follows: active = growth percent below 10; inactive = the rest.
Response enum: active, inactive

Fill in: this test's call for "O=C(N/N=C/c1ccc(F)cc1)c1[nH]c2ccc(I)cc2c1-c1ccccc1" is ___
inactive

Dear colleague, could you share the recorded outcome for "COc1cc(/C=C/c2cc(/C=C/c3ccc(O)c(OC)c3)n(-c3ccccc3)n2)ccc1O" when you have a moment?
active

Query: recorded result category for "O=C(CCc1nnc2sc(/C=C\c3ccccc3)nn12)c1nc2ccccc2[nH]1" in this test
inactive

Which outcome did this test record for the compound COc1ccc(/C=N/OCC(O)CNCc2ccccc2)cc1OC1CCCC1 (stereo not given) ?
inactive

Called result for "Nc1ccccc1-c1n[nH]c(=O)[nH]c1=O"
inactive

Recorded call for "COc1ccc(-c2c3c(N)c4c(nc3nc3c2c(C)nn3-c2ccccc2)CCCCC4)cc1" ?
active

Entry "COc1ccc(-c2nn(-c3ccc(NC(=O)c4ccc(Cl)c(Cl)c4)cc3)cc2-c2ccncc2)cc1Cl" : call = ?
active

Tell me the recorded outcome of this test for CCN1C(=O)C2(Nc3ccccc3S2)c2cc(C)ccc21 (stereo not given) .
inactive

Given "COc1ccc(-c2nc3sc(C)nn3c2-c2nc3cc(C)c(C)cc3[nH]2)cc1" , state the outcome it received in this test.
inactive

How did this test come out for CCOC(=O)C(CC(c1ccccc1)N1CCCCC1)[N+](=O)[O-] (stereo not given) ?
inactive

====

Exercise: state measured growth for each of the compounds provided.
- Test system: COLO 205 colon
- assayRemarks: NCI-60 one-dose screen, 48 h (100 = growth as untreated, 0 = no growth, -100 = all killed)
- experimentalParameters: 10 µM unless noted
This is part of a sample that, as a whole, favours compounds with a hit. Of some 83,000 tested, about 20% had one in any assay.
Write the number in % without appending the unit.

Find the measured growth of "Clc1ccc2c(c1)C[C@H]1C[C@@H](c3cccs3)N2O1" and report it.
112

Give the reported value of growth for this record: "O=C1/C(=C/c2ccc(Oc3ccccc3)cc2)N=C(c2ccccc2)N1CCc1cccs1"
107

Look up growth of "Cc1ccc(S(=O)(=O)N2C/C(=C\c3cc(F)cc(F)c3)C(=O)/C(=C/c3cc(F)cc(F)c3)C2)cc1" and report it.
1.42

Assign growth to the following record: "Fc1c[c-]c(-c2ccccn2)c(F)c1.Fc1c[c-]c(-c2ccccn2)c(F)c1.[Cl][Pt+].[Cl][Pt+].c1ccc([PH+](C[PH+](c2ccccc2)c2ccccc2)c2ccccc2)cc1"
-65.2

====

- Tested on: MDA-MB-435 melanoma
- assayRemarks: NCI-60 one-dose screen, 48 h
- experimentalParameters: 10 µM unless noted
This is part of a sample that, as a whole, favours compounds with a hit. Of some 83,000 tested, about 20% had one in any assay. Active and inactive are the calls of the source. How the source made its calls: active means growth percent below 10; inactive means the rest.
Your reply should match one of these outcome classes. active, inactive

Lab log entry: "Clc1ccc(Nc2nc(Nc3ccccc3)nc(Nc3ccc(-c4cc(-c5ccc(Cl)cc5)on4)cc3)n2)cc1" — outcome as called in the assay?
inactive

Short answer needed: outcome of this test for Cc1ccc(S(=O)(=O)N2CCc3ccc(O)c4c3C2CCc2ccccc2-4)cc1 (configuration not stated) ?
inactive

Could you please tell me the result logged for "Cc1cc(=O)[nH]n1-c1cc(Cl)ccc1N" in this assay?
inactive

Recorded call for Cc1ccc(S(=O)(=O)N2CCc3ccc(O)c4c3C2Cc2cc(Cl)ccc2-4)cc1 (configuration not stated) ?
active

Hi, sorry to bother you, what did the test record for "Cc1nn(CC(=O)O)c2c1C(=O)CC(C)(C)C2" ?
inactive

What outcome does the record of this test show for "O=[N+]([O-])c1cc2c(cc1Br)-c1ccccc1C2" ?
inactive

So what was the verdict on "Cc1ccc(-c2nnc(COc3ccc(-c4nnc(N)s4)cc3)o2)cc1" in this test?
inactive

What classification did "C=C1CC[C@@H]2[C@@](C)(CCC[C@]2(C)C(=O)O)[C@@H]1CC[C@H](CO)CCO" end up with in this test?
inactive

Which result was noted for this molecule in the test: COc1cc(/C=N/NC(=O)c2cnn3c2NC(c2ccccc2)C3)cc(OC)c1OC (configuration not stated)
active

Please share the test call associated with "O=C(COc1cccc(/C=C2\COc3ccccc3C2=O)c1)c1ccccc1" .
inactive

Hello, I am checking results. What call was entered for "FC(F)(F)c1cc(CNc2nc(Cl)ncc2Br)cc(C(F)(F)F)c1" ?
inactive

Fill in: this test's call for O=C(CC(O)c1ccccc1)Nc1ccccn1 (configuration not stated) is ___
inactive

Identify the outcome logged in this assay for the molecule shown: "Cc1c(C(=O)Nc2nc(-c3ccccc3)cs2)nnn1-c1cccc2ccccc12"
inactive

What was the test verdict on "CNc1ccc(Br)cc1-c1n[nH]c(=O)[nH]c1=O" ?
inactive

Given "O=c1[nH]c(=S)c2c(n1CCCO)CCC2" , state the outcome it received in this test.
inactive

Dear colleague, could you share the recorded outcome for "COc1ccc(-c2c3c(N)c4c(nc3nc3c2c(C)nn3-c2ccccc2)CCCCC4)cc1" when you have a moment?
inactive

Check the results log: what was the call for "O=C1C=CC(=O)N1CCCCCCCCCCN1C(=O)C=CC1=O" ?
inactive

# outcome recorded in this test, key = "O=C1/C(=C/c2ccc(Oc3ccccc3)cc2)N=C(c2ccccc2)N1CCc1cccs1"
inactive

Could you kindly confirm the outcome this assay logged for "N#Cc1ccc(C(F)(F)F)nc1N1CCC(C(=O)Nc2ccc(Cl)cc2)CC1" ?
inactive

Query: recorded result category for "O=S(=O)(Nc1ccccc1Cl)c1ccc(-c2cnc(C3CC3)o2)cc1" in this test
active

What did the test return for Oc1ccc2ccccc2c1C1NN=C(c2ccccc2)S1 (configuration not stated) ?
inactive

Please state the recorded outcome for this molecule: "COC(=O)c1c2c(c(C)[n+]([O-])c1C)C(=O)C=C(NCc1ccc(Cl)cc1)C2=O"
active

Which outcome was entered for the molecule "COc1ccc(OC)c(/C=C2\Oc3cc(O)ccc3C2=O)c1" in this test?
inactive

Query: recorded result category for "N#Cc1c(O)c2c(c(O)c1C#N)C(=O)c1ccccc1C2=O" in this test
active

Just curious, what result did CCC(C)Oc1cc(/C=N/NC(=O)c2cnn3c2NC(c2ccccc2)C3)ccc1OC (configuration not stated) get here?
active

Per the records of this test, what outcome belongs to "CC(=O)Nc1ccc(S(=O)(=O)N/N=C\c2ccc(Cl)c(Cl)c2)cc1" ?
inactive

Dear colleague, could you share the recorded outcome for "COc1cc(/C=C2\C(=O)Nc3ccccc32)cc(OC)c1O" when you have a moment?
active

Please share the test call associated with CCOC(=O)C1=C(C)N2C(=NC3=C(CCCC/C3=C\c3cc(OC)c(OC)c(OC)c3)C2c2cc(OC)c(OC)c(OC)c2)S1 (configuration not stated) .
inactive

Would you mind telling me which call this test gave COc1c(O)c2c3c(c1OC)-c1ccccc1CC3N(S(=O)(=O)c1ccc(C)cc1)CC2 (configuration not stated) ?
active

Per the assay record, what outcome was assigned to C=C[C@H]1C[C@@H]2C[C@@H]3[C@H]4C/C=C\C(=O)NCCCC5NC(=O)C(=C(O)/C=C/[C@@H]4CC(=O)[C@H]3[C@@H]2[C@H]1C)C5=O (some centres not stated) ?
active

For this molecule, state the assay outcome: "CN1CCN(c2nc(-c3ccncc3)nc3sc4c(c23)CCCCCC4)CC1"
inactive

Short answer needed: outcome of this test for "Cc1nc2cc(Nc3nc(NCCN)nc(Nc4ccc(F)cc4)n3)ccc2n1Cc1ccccc1" ?
inactive

Which outcome did this test record for the molecule "O=c1[nH]c(=O)n(Cc2ccc(F)cc2)cc1F" ?
inactive

Check the results log: what was the call for "CN1CCN(CCCn2c3c(sc4ncccc43)c(=O)n3nnc(-c4ccccc4)c23)CC1" ?
inactive

Dear colleague, could you share the recorded outcome for "CC(=O)Nc1ccccc1-c1n[nH]c(=O)[nH]c1=O" when you have a moment?
inactive

Tell me the assay call for "Cc1ccc(NS(=O)(=O)c2ccc(-c3cnc(C4CC4)o3)cc2)cc1" please.
active

Could you check what this test reported for COc1cccc(C2CC(=O)Nc3cc4c(cc32)CCC4)c1OC (configuration not stated) ?
active

Name the outcome recorded for CC1SC(c2cccc(Oc3ccccc3)c2)N(CCc2cccs2)C1=O (configuration not stated) in the assay.
active

// outcome(item) with item = "OC[C@@H](O)[C@@H](O)CO"
inactive

For "O=C1/C(=C/c2ccccc2F)CNC/C1=C\c1ccccc1F" , which call appears in the assay record?
active

Per the assay record, what outcome was assigned to O=[N+]([O-])c1cc2c(cc1Br)C1C(C3C2C(Cl)(Cl)C(Cl)=C(Cl)C3(Cl)Cl)C(Cl)(Cl)C(Cl)=C(Cl)C1(Cl)Cl (configuration not stated) ?
inactive

Record request — test call for "CCCCCCCCCCCCCCn1c2ccccc2c2c3c(c4c5cc(OC)ccc5oc4c21)C(=O)NC3=O"
inactive
